molecular target: T1, His-tagged, full-length PCSK9 (human, UniProt Q8NBP7 31-692); assay: TR-FRET competition; His-PCSK9, competitor EGF(A)-Fc
T1 construct: The secreted protein is autocleaved into a prodomain and a catalytic/Cys-rich chain that starts at S153; also called His-PCSK9
T1 sequence (Q8NBP7 other isoform, or with tags, fused parts or gaps limits assumed): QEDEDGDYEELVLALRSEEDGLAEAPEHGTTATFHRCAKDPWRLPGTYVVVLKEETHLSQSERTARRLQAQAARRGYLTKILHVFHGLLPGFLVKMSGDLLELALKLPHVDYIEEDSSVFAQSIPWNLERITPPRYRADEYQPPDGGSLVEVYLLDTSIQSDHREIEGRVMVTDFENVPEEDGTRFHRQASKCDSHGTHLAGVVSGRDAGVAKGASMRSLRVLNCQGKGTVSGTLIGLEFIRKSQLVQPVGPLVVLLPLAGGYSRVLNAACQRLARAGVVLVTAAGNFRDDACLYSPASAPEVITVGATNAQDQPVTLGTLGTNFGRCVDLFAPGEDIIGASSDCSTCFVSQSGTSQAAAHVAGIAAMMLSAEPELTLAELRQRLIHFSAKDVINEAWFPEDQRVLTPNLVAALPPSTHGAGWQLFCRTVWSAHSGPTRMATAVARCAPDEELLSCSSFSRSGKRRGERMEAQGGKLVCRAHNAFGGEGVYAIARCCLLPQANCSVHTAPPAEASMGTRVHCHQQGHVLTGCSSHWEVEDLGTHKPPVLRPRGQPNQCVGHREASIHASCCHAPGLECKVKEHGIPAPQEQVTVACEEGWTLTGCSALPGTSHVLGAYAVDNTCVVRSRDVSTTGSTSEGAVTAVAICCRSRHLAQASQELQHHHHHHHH
pIC50: −log10 of the molar value. Bridge positions count the residues as written; N and C are the ends. Square brackets hold non-standard residues; d marks the D form. Ends that are not written are not given here. * marks the point of attachment. Trp(6-F) = N[C@@H](Cc1c[nH]c2cc(F)ccc12)C(=O)O; hArg = N=C(N)NCCCC[C@H](N)C(=O)O; Pentanoyl = CCCCC(=O)*
Parameter pIC50: see the listing below.

BINDER | PREFIX OPERATOR | pIC50
WNLV[hArg]IGLLR (also: end groups and other groups only in drawing, Structure printed only as a drawing) [Compound 199] | = | 6.01
Ac-TVFTS[Trp(6-F)]EEYLDWVGSGCRLPWNLQRIGLPC-NH2 (disulfide 17-30 (inferred)) [Compound 241] | = | 5.80
WNLV[hArg]IGLLR (also: further groups not given here, Structure printed only as a drawing) [Compound 223] | = | 4.68
WNLVRIGLLR (also: further groups not given here, Structure printed only as a drawing) [Compound 135] | ≤ | 4.30
WNLV[hArg]IGLLN (also: further groups not given here, Structure printed only as a drawing) [Compound 238] | = | 5.11
WNLVRIGLLR (also: further groups not given here, Structure printed only as a drawing) [Compound 128] | ≤ | 4.30
WNLV[hArg]IGLLR (also: further groups not given here, Structure printed only as a drawing) [Compound 213] | = | 5.42
Ac-GLMPWNLVRIGLLR-NH2 [Compound 124] | ≤ | 4.30
Ac-SFAFPGWNLVRIGLLR-NH2 [Compound 154] | = | 4.96
WNLVRIGLLR (also: further groups not given here, Structure printed only as a drawing) [Compound 146] | = | 4.96
WNLV[hArg]IGLLR (also: end groups and other groups only in drawing, Structure printed only as a drawing) [Compound 200] | = | 5.49
Pentanoyl-WNLVRIGLLR [Compound 152] | = | 4.37
